Tested on: melanin
test_summary: Compound binding to melanin
Format: in vitro ADME
assay_setup: cuttlefish (Sepia officinalis), melanin suspension (1 mg/mL), percentage of free drug (not bound to melanin), 2 µM compound, melanin 1 mg/mL in PBS pH 7.4, 37°C
readout: fraction unbound at 2 h, 2 µM

>  <chemical_smiles>
CCN(CC)Cc1ccc(/C=C/c2n[nH]c3cc(Sc4ccccc4C(=O)NCCF)ccc23)nc1

>  <fraction unbound at 2 h, 2 µM>
> 0.05

$$$$

State recorded fraction unbound at 2 h, 2 µM for all listed molecules.
1. CNC(=O)c1ccccc1Sc1ccc2c(/C=C/c3ccc(CCN4CCCC4)cn3)n[nH]c2c1
2. CNC(=O)c1ccccc1Sc1ccc2c(/C=C/c3cnn(CCCN4CCCC4)c3)n[nH]c2c1
3. CNC(=O)c1ccccc1Sc1ccc2c(/C=C/c3ccn(CCN4CCCC4)n3)n[nH]c2c1
4. CNC(=O)c1ccccc1Sc1ccc2c(/C=C/c3cccc(OCCN4CCCC4)c3)n[nH]c2c1
5. CN(C)Cc1ccc(/C=C/c2n[nH]c3cc(Sc4ccccc4C(=O)NC4CC4)ccc23)nc1

1. 0.01 to 0.05
2. 0.01 to 0.05
3. 0.01 to 0.05
4. 0.01 to 0.05
5. 0.01 to 0.05
